Experimental Target: Estrogen receptor (Homo sapiens) (UniProt P03372)
Sequence (P03372 whole entry, looked up): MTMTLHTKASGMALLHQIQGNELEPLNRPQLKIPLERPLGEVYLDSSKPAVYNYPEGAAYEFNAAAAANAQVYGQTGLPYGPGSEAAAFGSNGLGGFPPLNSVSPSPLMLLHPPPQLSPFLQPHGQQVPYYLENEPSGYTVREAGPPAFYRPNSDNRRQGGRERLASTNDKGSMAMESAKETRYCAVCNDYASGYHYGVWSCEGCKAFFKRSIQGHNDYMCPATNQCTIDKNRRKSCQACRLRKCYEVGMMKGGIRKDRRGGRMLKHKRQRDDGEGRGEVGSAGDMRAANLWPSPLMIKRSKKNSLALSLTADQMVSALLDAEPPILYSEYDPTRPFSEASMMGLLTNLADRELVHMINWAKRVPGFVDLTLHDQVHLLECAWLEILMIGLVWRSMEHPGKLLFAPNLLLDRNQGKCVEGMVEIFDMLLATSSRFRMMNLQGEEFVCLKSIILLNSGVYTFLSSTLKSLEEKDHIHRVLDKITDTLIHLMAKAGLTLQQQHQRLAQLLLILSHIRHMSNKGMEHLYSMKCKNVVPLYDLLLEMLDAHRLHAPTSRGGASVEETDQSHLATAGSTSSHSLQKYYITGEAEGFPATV
Protocol Notes: ATG_ERa_TRANS: Attagene TRANS-FACTORIAL HepG2 Assay for human Estrogen Receptor alpha (ERa) (AID 2282970)
Condition Context: HepG2 Attagene TRANS ERa GAL4 reporter, mRNA
Results filed as inconclusive are left out. Calls of active or inactive are those of the source. Rule for the calls: active = hit-call score of the fitted dose curve at least 0.9, where 1 is the maximum; inconclusive = response in the unintended direction; inactive = score below 0.9.
Hello, when you answer, please use one of the following outcomes: active, inactive

Compound	Experimental Target	Class Name
CCNP(=S)(OC)O/C(C)=C/C(=O)OC(C)C (configuration not stated)	Estrogen receptor (Homo sapiens) (UniProt P03372)	active

// query So what was the verdict on `Clc1cccc(C(Cl)(Cl)Cl)n1` in this test?
// result inactive

// query So what was the verdict on `CN=C=S` in this test?
// result inactive

// query So what was the verdict on CCC(C)n1c(=O)[nH]c(C)c(Br)c1=O (configuration not stated) in this test?
// result inactive

// query So what was the verdict on `CCN(CC)c1nc(C)cc(OP(=S)(OC)OC)n1` in this test?
// result active

// query So what was the verdict on `O=C(Nc1ccccc1-c1ccc(Cl)cc1)c1cccnc1Cl` in this test?
// result inactive

// query So what was the verdict on CCOc1cc(C(C)(C)C)ccc1C1COC(c2c(F)cccc2F)=N1 (configuration not stated) in this test?
// result inactive

###

System: frog Estrogen Receptor (ER2), gene 100174814
Protocol Notes: ATG_frER2_XSP2: Attagene TRANS-FACTORIAL Multi-Species (XSP2) HepG2 Assay for frog Estrogen Receptor (ER2) (AID 2283828)
Results filed as inconclusive are left out. Active and inactive are the calls of the source. How the source made its calls: active means hit-call score of the fitted dose curve at least 0.9, where 1 is the maximum; inconclusive means response in the unintended direction; inactive means score below 0.9.
Hello, when you answer, please use one of the following outcomes: 1 (yes) = active, 0 (no) = inactive

Some solved entries appear below for comparison.
Compound	Class Name
CC(C)NC(=O)N1CC(=O)N(c2cc(Cl)cc(Cl)c2)C1=O	0 (no)
COP(=S)(OC)SCn1nnc2ccccc2c1=O	0 (no)

// query So what was the verdict on CC1(C)CCC(=Cc2ccc(Cl)cc2)C1(O)Cn1cncn1 (configuration not stated) in this test?
// result 1 (yes)

// query So what was the verdict on `CSC(=O)c1c(C(F)F)nc(C(F)(F)F)c(C(=O)SC)c1CC(C)C` in this test?
// result 1 (yes)

// query So what was the verdict on `Cc1c(COC(=O)[C@@H]2[C@H](/C=C(\Cl)C(F)(F)F)C2(C)C)cccc1-c1ccccc1` in this test?
// result 1 (yes)

// query So what was the verdict on CCN(CC)C(=O)C(C)Oc1cccc2ccccc12 (configuration not stated) in this test?
// result 1 (yes)

// query So what was the verdict on CC1(C)C(C=C(Cl)Cl)C1C(=O)OC(C#N)c1cccc(Oc2ccccc2)c1 (configuration not stated) in this test?
// result 1 (yes)

###

Protocol Notes: CCTE_Mundy_HCI_Cortical_Synap_Neur_Matur_NeuriteLength: CCTE's Synaptogenesis and Neurite Maturation Assay in rat cortical cells for Neurite Length, Mundy Lab (AID 2284214)
Activity calls are given as the source filed them. The calls were made as follows: active = hit-call score of the fitted dose curve at least 0.9, where 1 is the maximum; inactive = score below 0.9.
Hello, when you answer, please use one of the following outcomes: 1 for active, 0 for inactive

Some solved entries appear below for comparison.
Compound	Class Name
N#CN=C1SCCN1Cc1ccc(Cl)nc1	0
CS(=O)(=O)c1cc(C(F)(F)F)ccc1C(=O)c1cnoc1C1CC1	0
CO/N=C(/C1=NOCCO1)c1ccccc1Oc1ncnc(Oc2ccccc2Cl)c1F	1
COP(=O)(OC)O/C(C)=C/C(=O)N(C)C	0
CC1(C)C(C=C(Cl)Cl)C1C(=O)OC(C#N)c1cccc(Oc2ccccc2)c1 (stereo unspecified)	0

// query So what was the verdict on `COP(=S)(OC)SCn1nnc2ccccc2c1=O` in this test?
// result 0

###

Experimental Target: human Serotonin, 5-Hydroxytryptamine Receptor 7 (5HT7), HTR7 (gene 3363)
Protocol Notes: NVS_GPCR_h5HT7: NovaScreen (NVS) G Protein-Coupled Receptor Assay for human Serotonin, 5-Hydroxytryptamine Receptor 7 (5HT7) (AID 2283255);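 note: hits reduce specific radioligand binding relative to DMSO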
Records with an inconclusive call do not appear. Calls of active or inactive are those of the source. The calls were made as follows: active = hit-call score of the fitted dose curve at least 0.9, where 1 is the maximum; inconclusive = response in the unintended direction; inactive = score below 0.9.
Hello, when you answer, please use one of the following outcomes: active, inactive

Molecule	Class Name
CC1(C)C(C=C(Cl)Cl)C1C(=O)OC(C#N)c1cccc(Oc2ccccc2)c1 (centres undefined)	active
O=C1C2CC=CCC2C(=O)N1SC(Cl)(Cl)Cl (centres undefined)	active
CCOC(=O)C(C)OC(=O)c1cc(Oc2ccc(C(F)(F)F)cc2Cl)ccc1[N+](=O)[O-] (centres undefined)	active
CCCN(CC)CC1COC2(CCC(C(C)(C)C)CC2)O1 (centres undefined)	active

// query So what was the verdict on `Cc1ccc(N=CN(C)C=Nc2ccc(C)cc2C)c(C)c1` in this test?
// result active

// query So what was the verdict on CC1(C)C(C(=O)OC(C#N)c2cccc(Oc3ccccc3)c2)C1(C)C (centres undefined) in this test?
// result active

// query So what was the verdict on `Cn1c(-c2ccccc2)cc(-c2ccccc2)[n+]1C` in this test?
// result active

// query So what was the verdict on `COC(=O)N(C(=O)N1CO[C@@]2(C(=O)OC)Cc3cc(Cl)ccc3C2=N1)c1ccc(OC(F)(F)F)cc1` in this test?
// result inactive

// query So what was the verdict on CCC(C)n1c(=O)[nH]c(C)c(Br)c1=O (centres undefined) in this test?
// result active

###

Read-out: Urokinase-type plasminogen activator receptor (uPAR), PLAUR (gene 5329)
Protocol Notes: BSK_CASM3C_uPAR: BioMAP Diversity Plus: CASM3C Assay for Urokinase-type plasminogen activator receptor (uPAR) Biomarker Activity (AID 2283054);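 note: cell-surface uPAR protein level quantified by ELISA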
Condition Context: primary human coronary artery smooth muscle cells; actives raise or lower the signal
Active and inactive are the calls of the source. The calls were made as follows: active = hit-call score of the fitted dose curve at least 0.9, where 1 is the maximum; inactive = score below 0.9.
Hello, when you answer, please use one of the following outcomes: active, inactive

Some solved entries appear below for comparison.
Compound	Class Name
O=c1n(Cl)c(=O)n(Cl)c(=O)n1Cl	inactive
COP(=S)(OC)SCn1nnc2ccccc2c1=O	inactive
C=C(C)CN(CC)c1c([N+](=O)[O-])cc(C(F)(F)F)cc1[N+](=O)[O-]	inactive
CC1(C)C(C=C(Cl)Cl)C1C(=O)OC(C#N)c1cccc(Oc2ccccc2)c1 (configuration not stated)	inactive
C=CCOC(=O)C(C)(C)OC(=O)c1cc(-n2c(=O)cc(C(F)(F)F)n(C)c2=O)ccc1Cl	active
CCOc1cc(C(C)(C)C)ccc1C1COC(c2c(F)cccc2F)=N1 (configuration not stated)	active
CCCC(=NOCC)C1=C(O)CC(CC(C)SCC)CC1=O (configuration not stated)	inactive
COP(=S)(OC)Oc1ccc([N+](=O)[O-])c(C)c1	inactive
COC(=O)c1c(C(F)F)nc(C(F)(F)F)c(C2=NCCS2)c1CC(C)C	inactive
CS(=O)(=O)c1ccc(C(=O)C2C(=O)CCCC2=O)c([N+](=O)[O-])c1	inactive

// query So what was the verdict on CCOC(=O)C(C)OC(=O)c1cc(Oc2ccc(C(F)(F)F)cc2Cl)ccc1[N+](=O)[O-] (configuration not stated) in this test?
// result inactive

// query So what was the verdict on `CNC(=O)Oc1cccc2ccccc12` in this test?
// result inactive

// query So what was the verdict on CC1(C)CCC(=Cc2ccc(Cl)cc2)C1(O)Cn1cncn1 (configuration not stated) in this test?
// result inactive

// query So what was the verdict on `Clc1cccc(C(Cl)(Cl)Cl)n1` in this test?
// result inactive

// query So what was the verdict on `CSC(=O)c1c(C(F)F)nc(C(F)(F)F)c(C(=O)SC)c1CC(C)C` in this test?
// result inactive

// query So what was the verdict on `N#Cc1c(Cl)cccc1Cl` in this test?
// result inactive

// query So what was the verdict on CC(C)=CC1C(C(=O)OCc2coc(Cc3ccccc3)c2)C1(C)C (configuration not stated) in this test?
// result inactive

// query So what was the verdict on CCCCC(O)(Cn1cncn1)c1ccc(Cl)cc1Cl (configuration not stated) in this test?
// result inactive

// query So what was the verdict on `Cc1nc(N(C)C)nc(OC(=O)N(C)C)c1C` in this test?
// result inactive

// query So what was the verdict on `CCOc1nc(C(Cl)(Cl)Cl)ns1` in this test?
// result inactive

// query So what was the verdict on `Nc1c(Cl)c(F)nc(OCC(=O)O)c1Cl` in this test?
// result inactive

// query So what was the verdict on `CCSC(=O)N1CCCCCC1` in this test?
// result inactive

// query So what was the verdict on `N#CN=C1SCCN1Cc1ccc(Cl)nc1` in this test?
// result inactive

// query So what was the verdict on `COC(=O)NS(=O)(=O)c1ccc(N)cc1` in this test?
// result inactive

// query So what was the verdict on CCC(C)n1c(=O)[nH]c(C)c(Br)c1=O (configuration not stated) in this test?
// result inactive

// query So what was the verdict on `CC1(C)CON(Cc2ccccc2Cl)C1=O` in this test?
// result inactive
